// IC50 collected for Proteinase-activated receptor 1 (Homo sapiens)
Non-standard residues stand in square brackets, D forms with d. Residues, ends and D or L forms follow the SMILES beside them. *: point of attachment. X7 = CC(=O)N(C(=O)/C=C/c1ccc(F)cc1)[C@@H](Cc1ccc(F)cc1)C(=O)*; Phe(4-guanidino) = N=C(N)Nc1ccc(C[C@H](N)C(=O)O)cc1
Supply the numeric figure in nM, leaving out any unit text.

Kindly indicate its recorded IC50. Item: CC(=O)N(C(=O)/C=C/c1ccccc1)[C@@H](Cc1cccnc1)C(=O)N[C@@H](Cc1ccc(NC(=N)N)cc1)C(=O)N[C@@H](CC(C)C)C(=O)N[C@@H](CCCN=C(N)N)C(N)=O 3440

Note IC50 for the compound shown: CC(=O)N(C(=O)/C=C/c1ccccc1)[C@@H](Cc1ccc(F)cc1)C(=O)N[C@@H](CCCCN)C(=O)N[C@@H](CC(C)C)C(=O)N[C@@H](CCCN=C(N)N)C(N)=O 39

Please list IC50 recorded for the compound CC(=O)N(C(=O)/C=C/c1ccccc1)[C@@H](Cc1ccc(F)cc1)C(=O)N[C@@H](CCCCN=C(N)N)C(=O)N[C@@H](CC(C)C)C(=O)N[C@@H](CCCN=C(N)N)C(N)=O 12

Look up IC50 of CC(=O)N(C(=O)/C=C/c1ccc(F)cc1)[C@@H](Cc1ccc(F)cc1)C(=O)N[C@@H](Cc1ccc(NC(=N)N)cc1)C(=O)N[C@@H](CC(C)C)C(=O)N[C@@H](CCCN=C(N)N)C(=O)N[C@@H](CCCN=C(N)N)C(N)=O (X7-[Phe(4-guanidino)]LRR-NH2) and report it. 19

Return the recorded IC50 value; entry: CC(=O)N(C(=O)/C=C/c1ccccc1)[C@@H](Cc1ccc(F)cc1)C(=O)N[C@@H](Cc1ccc(NC(=N)N)cc1)C(=O)N[C@@H](CCCN)C(N)=O 870

Find the measured IC50 of CC(=O)N(C(=O)/C=C/c1ccccc1)[C@@H](CC1CCCCC1)C(=O)N[C@@H](Cc1ccc(NC(=N)N)cc1)C(=O)N[C@@H](CC(C)C)C(=O)N[C@@H](CCCN=C(N)N)C(N)=O and report it. 93

Read off the recorded IC50 for CC(=O)N(C(=O)/C=C/c1ccccc1)[C@@H](Cc1ccc(F)cc1)C(=O)N[C@@H](Cc1ccc([N+](=O)[O-])cc1)C(=O)N[C@@H](CC(C)C)C(=O)N[C@@H](CCCN=C(N)N)C(N)=O 7550

Note down IC50 recorded for COc1ccc(C[C@H](NC(=O)[C@H](Cc2ccc(F)cc2)N(C(C)=O)C(=O)/C=C/c2ccccc2)C(=O)N[C@@H](CC(C)C)C(=O)N[C@@H](CCCN=C(N)N)C(N)=O)cc1 1180

---

Non-standard residues stand in square brackets, D forms with d. Residues, ends and D or L forms follow the SMILES beside them. *: point of attachment. Phe(4-guanidino) = N=C(N)Nc1ccc(C[C@H](N)C(=O)O)cc1; Phe(4-F) = N[C@@H](Cc1ccc(F)cc1)C(=O)O; Benzoyl(4-Cl) = O=C(c1ccc(Cl)cc1)*; Thiophene3carbonyl = O=C(c1ccsc1)*
A set of compounds tested on Proteinase-activated receptor 1 (Homo sapiens), with measured pIC50:
For clarity, pIC50 is expressed as the negative log10 of concentration in mol/L.

CC(=O)N(C(=O)/C=C/c1ccccc1)[C@@H](Cc1ccc(F)cc1)C(=O)N[C@@H](Cc1ccc(NC(=N)N)cc1)C(=O)N[C@@H](CC(C)C)C(N)=O	6.96
CC(=O)N(C(=O)/C=C/c1ccccc1)[C@@H](Cc1ccc(F)cc1)C(=O)N[C@@H](CCCN=C(N)N)C(=O)N[C@@H](CC(C)C)C(=O)N[C@@H](CCCN=C(N)N)C(N)=O	7.55
CC(C)C[C@H](NC(=O)[C@H](Cc1ccc(NC(=N)N)cc1)NC(=O)[C@H](Cc1ccc(F)cc1)NC(=O)c1ccsc1)C(=O)N[C@@H](CCCN=C(N)N)C(N)=O (Thiophene3carbonyl-[Phe(4-F)][Phe(4-guanidino)]LR-NH2)	7.62
CC(C)C[C@H](NC(=O)[C@H](Cc1ccc(NC(=N)N)cc1)NC(=O)[C@H](Cc1ccc(F)cc1)NC(=O)c1ccc(Cl)cc1)C(=O)N[C@@H](CCCN=C(N)N)C(N)=O ({Benzoyl(4-Cl)}-[Phe(4-F)][Phe(4-guanidino)]LR-NH2)	7.59

GET pIC50 where system = Proteinase-activated receptor 1 (Homo sapiens) and item = CC(=O)N(C(=O)/C=C/c1ccc(F)cc1)[C@@H](Cc1ccc(F)cc1)C(=O)N[C@@H](Cc1ccc(NC(=N)N)cc1)C(=O)N[C@@H](CC(C)C)C(=O)N[C@@H](CCCN=C(N)N)C(=O)N[C@@H](CCCN)C(=O)CC(N)=O 7.60

Tell me pIC50 of CC(=O)N(C(=O)/C=C/c1ccccc1)[C@@H](Cc1ccc(F)cc1)C(=O)N[C@@H](Cc1cccnc1)C(=O)N[C@@H](CC(C)C)C(=O)N[C@@H](CCCN=C(N)N)C(N)=O when tested on Proteinase-activated receptor 1 (Homo sapiens). 6.47

Answer briefly: pIC50 recorded on Proteinase-activated receptor 1 (Homo sapiens) for CC(=O)N(C(=O)COc1ccccc1)[C@@H](Cc1ccc(F)cc1)C(=O)N[C@@H](Cc1ccc(NC(=N)N)cc1)C(=O)N[C@@H](CC(C)C)C(=O)N[C@@H](CCCN=C(N)N)C(N)=O 7.68

---

The following compounds have recorded IC50 on Proteinase-activated receptor 1 (Homo sapiens).
Sequence (P25116 whole entry): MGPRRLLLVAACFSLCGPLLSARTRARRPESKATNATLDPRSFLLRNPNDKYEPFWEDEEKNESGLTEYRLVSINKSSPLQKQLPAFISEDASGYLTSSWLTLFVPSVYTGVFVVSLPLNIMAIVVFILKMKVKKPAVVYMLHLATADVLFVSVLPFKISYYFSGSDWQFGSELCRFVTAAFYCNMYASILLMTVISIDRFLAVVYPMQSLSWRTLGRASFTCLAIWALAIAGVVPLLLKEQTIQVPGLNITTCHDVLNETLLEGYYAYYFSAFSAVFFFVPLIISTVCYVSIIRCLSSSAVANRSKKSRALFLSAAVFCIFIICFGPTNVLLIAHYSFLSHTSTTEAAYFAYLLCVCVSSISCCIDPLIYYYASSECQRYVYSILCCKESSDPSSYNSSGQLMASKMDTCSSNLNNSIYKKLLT
Give just the number in nM; leave the unit off.

As a guide, the following entries are already answered.
CC(=O)N(C(=O)/C=C/c1ccccc1)[C@@H](Cc1ccc(F)cc1)C(=O)N[C@@H](Cc1ccc(NC(=N)N)cc1)C(=O)N[C@@H](CC(C)C)C(=O)N[C@@H](CCCN=C(N)N)C(=O)N[C@@H](CCCN)C(=O)CC(N)=O	16.6
CC(=O)N(C(=O)/C=C/c1ccccc1)[C@@H](Cc1ccc(F)cc1)C(=O)N[C@@H](Cc1ccc(NC(=N)N)cc1)C(=O)N[C@@H](CC(C)C)C(=O)N[C@@H](CCCN=C(N)N)C(=O)N[C@@H](CCCN)C(=O)CCC(N)=O	21.9
CC(=O)N(C(=O)c1ccccc1N)[C@@H](Cc1ccc(F)cc1)C(=O)N[C@@H](Cc1ccc(NC(=N)N)cc1)C(=O)N[C@@H](CC(C)C)C(=O)N[C@@H](CCCN=C(N)N)C(N)=O	1000
CC(=O)N(C1CCCC1)[C@@H](Cc1ccc(F)cc1)C(=O)N[C@@H](Cc1ccc(NC(=N)N)cc1)C(=O)N[C@@H](CC(C)C)C(=O)N[C@@H](CCCN=C(N)N)C(N)=O	370

Query IC50 for CC(=O)N(C(=O)/C=C/c1ccccc1)[C@@H](Cc1ccc(F)cc1)C(=O)N[C@@H](CCN=C(N(C)C)N(C)C)C(=O)N[C@@H](CC(C)C)C(=O)N[C@@H](CCCN=C(N)N)C(N)=O 340

---

Target or system Proteinase-activated receptor 1 (Homo sapiens, UniProt P25116); recorded quantity pIC50.
// scale note: pIC50 = -log10(conc_M); give the bare number

Known results for compounds:
CC(=O)N(C(=O)Cc1cccc2ccccc12)[C@@H](Cc1ccc(F)cc1)C(=O)N[C@@H](Cc1ccc(NC(=N)N)cc1)C(=O)N[C@@H](CC(C)C)C(=O)N[C@@H](CCCN=C(N)N)C(N)=O	5.79
CC(=O)N(Oc1cccs1)[C@@H](Cc1ccc(F)cc1)C(=O)N[C@@H](Cc1ccc(NC(=N)N)cc1)C(=O)N[C@@H](CC(C)C)C(=O)N[C@@H](CCCN=C(N)N)C(N)=O	6.66

Please examine the following record next.
Fetch value of pIC50 on Proteinase-activated receptor 1 (Homo sapiens, UniProt P25116) for COc1ccc(/C=C/C(=O)N(C(C)=O)[C@@H](Cc2ccc(F)cc2)C(=O)N[C@@H](Cc2ccc(NC(=N)N)cc2)C(=O)N[C@@H](CC(C)C)C(=O)N[C@@H](CCCN=C(N)N)C(N)=O)cc1 . 7.40

---

Recorded IC50 values (Proteinase-activated receptor 1 (Homo sapiens)) are given below.
Return type: number; implicit unit nM.

// worked examples, IC50 included
CC(=O)N(c1ccc(F)cc1)[C@@H](Cc1ccc(F)cc1)C(=O)N[C@@H](Cc1ccc(NC(=N)N)cc1)C(=O)N[C@@H](CC(C)C)C(=O)N[C@@H](CCCN=C(N)N)C(N)=O	350
CC(=O)N(C(=O)c1cccc(C2CCCCC2)c1)[C@@H](Cc1ccc(F)cc1)C(=O)N[C@@H](Cc1ccc(NC(=N)N)cc1)C(=O)N[C@@H](CC(C)C)C(=O)N[C@@H](CCCN=C(N)N)C(N)=O	2320

# next compound below
Answer with IC50 of CC(=O)N(c1c[nH]c2ccccc12)[C@@H](Cc1ccc(F)cc1)C(=O)N[C@@H](Cc1ccc(NC(=N)N)cc1)C(=O)N[C@@H](CC(C)C)C(=O)N[C@@H](CCCN=C(N)N)C(N)=O measured for Proteinase-activated receptor 1 (Homo sapiens). 500

These measurements were taken from ChEMBL document CHEMBL1129588.
